Hello, the source for this data is paper PMC6408513, in case you need it.

# measurementTarget: lactate dehydrogenase A (LDHA) (Homo sapiens)
# testName: in vitro LDH activity assay by NADH fluorescence; Michaelis-Menten/Lineweaver-Burk; inhibits […]-pyruvate binding
reportedProperty: IC50 (nM)
Provide only the numeric value, understood in nM.

Dear colleague, I am looking for the recorded IC50 of the following molecule: FC(F)(F)c1ccc([Se]c2ccccc2)cc1 [PSTMB]
145
